Biological target: Dihydroorotate dehydrogenase (quinone), mitochondrial (Plasmodium falciparum (isolate 3D7)) (UniProt Q08210)
Sequence (Q08210 whole entry, looked up): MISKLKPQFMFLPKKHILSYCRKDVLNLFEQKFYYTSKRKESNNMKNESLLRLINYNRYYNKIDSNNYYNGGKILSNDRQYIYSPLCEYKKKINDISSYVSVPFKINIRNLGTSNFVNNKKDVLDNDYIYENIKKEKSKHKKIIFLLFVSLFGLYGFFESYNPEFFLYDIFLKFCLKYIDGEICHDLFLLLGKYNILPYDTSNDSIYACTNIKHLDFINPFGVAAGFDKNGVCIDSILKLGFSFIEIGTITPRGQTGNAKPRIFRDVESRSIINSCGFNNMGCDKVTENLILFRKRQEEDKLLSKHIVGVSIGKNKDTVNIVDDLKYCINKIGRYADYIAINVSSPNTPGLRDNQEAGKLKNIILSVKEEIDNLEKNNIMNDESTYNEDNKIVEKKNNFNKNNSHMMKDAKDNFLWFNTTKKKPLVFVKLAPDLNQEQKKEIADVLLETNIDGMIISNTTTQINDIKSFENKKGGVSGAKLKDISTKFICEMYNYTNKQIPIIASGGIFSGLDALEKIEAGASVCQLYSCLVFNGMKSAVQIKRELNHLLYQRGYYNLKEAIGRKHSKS
Test: inhibition of P. falciparum DHODH – biochemical, C-terminal His tag, absorbance 600 nm, primary screen (AID 1175);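 further: recombinant parasite enzyme with a five histidine tag at its C terminus; test concentration not given here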
Conditions: PfDHODH enzyme, DCIP absorbance 600 nm; higher = more signal, called active from +8 up or from −8 down
Activity calls are given as the source filed them.
Listing: composite z-score of selected compounds

> print(dat)
                                   compound   measurement.name           measured
1  Cc1ccc(S[C@]2(C(=O)NC3CC3)CC(=O)N(C(C)C)[C@@H]2c2ccc(CO)cc2I)cc1  composite z-score  -0.632 (inactive)
2  CCCCC(O)C1C=CC2C(=O)N(c3ccccc3)C(=O)C2N1Nc1ccc(C#N)cc1 (centres undefined)  composite z-score   0.318 (inactive)
3  CC1CC/C=C\[C@H]2OC34C=CCN(C(C)(C)C)C(=O)[C@H]3N(CCCO)C(=O)[C@@H]4C2C(=O)O1 (some centres undefined)  composite z-score  -0.555 (inactive)

Consider the record given below.
Reported composite z-score for COC(=O)[C@]1(Cc2ccccc2)N=C(c2ccc(OCCCO)cc2)O[C@@H]1c1ccccc1CN=[N+]=[N-] : what is it? 1.94 (inactive)

----------
Listing: z-score of selected compounds
Assay: hepatitis C replication reporter changes, two-sided – Huh7 cells, luciferase reporter, HCV replication inhibitor project, primary screen (AID 1109);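 further: huh7 hepatoma cells harbouring a luciferase neomycin HCV replicon reporter; luciferase luminescence as measure of HCV replicon replication; test concentration not given here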
Settings: Huh7 HCV replicon luciferase reporter, 48 h; higher = more signal
# print the numeric value only

Examples with answers:
COMPOUND	z-score
COc1ccc(C(=O)Nc2cccc(CN3C(=O)[C@]4(O[C@H](CC(=O)N5Cc6ccccc6C[C@H]5CO)[C@@H]([Si](C)(C)c5ccc(OC)cc5)[C@@H]4C)c4ccccc43)c2)cc1	-3.44
CC1CC/C=C\[C@H]2OC34C=CCN(CCN5CCOCC5)C(=O)[C@H]3N(CCCO)C(=O)[C@@H]4C2C(=O)O1 (some centres undefined)	-0.945
O=C1[C@H]2C=C(I)[C@H](C[C@@H]2c2ccccc2)[C@@]12CO2	-3.6

Consider the record given below.
Reported z-score for O=C1C2C=CC(C(O)c3ccc([N+](=O)[O-])cc3)N(Nc3ccccc3F)C2C(=O)N1c1ccccc1 (centres undefined) : what is it? -0.288

----------
Molecular target: Calmodulin-1 (Homo sapiens) (UniProt P0DP23)
Assay: small molecules binding Ca-loaded calmodulin-1 – biochemical, small-molecule microarray, Cy5-labelled CALM1, plus calcium, artefact control for SMM control-protein annotation, profiling panel (AID 1112);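 further: score merges spot fluorescence with signal to noise from triplicate slides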
Conditions: Cy5-CALM1 binding fluorescence, higher = more signal
MEASUREMENT NAME: composite z-score
# print the numeric value only

Examples with answers:
> print(dat)
                                   molecule  measured
1  COc1ccc(C(O)C2C=CC3C(=O)N(C)C(=O)C3N2N(c2ccccc2)c2ccccc2)cc1 (stereo not drawn)     0.625
2  NC(=O)N1C(=O)C2C(C1=O)C1C=C(CCCO)C2C(c2ccc(CN3CCCC3)cc2)N1Cc1cc2c(cc1Br)OCO2 (stereo not drawn)    -0.361
3  N#Cc1ccc(C(O)C2C=CC3C(=O)NC(=O)C3N2Nc2ccc(Cl)cc2Cl)cc1 (stereo not drawn)     0.635
4  CCCC#C[Si](O[C@H](CC)c1cn(Cc2ccccc2)nn1)(C(C)C)C(C)C    -0.337
5  CN(C)CCCCNC(=O)[C@H]1C[C@H]2C(=O)NCC(=O)N2[C@H]1c1ccc(O)cc1     0.577

Notebook entry, Calmodulin-1 (Homo sapiens) (UniProt P0DP23) assay: composite z-score of COC(=O)[C@@]1(Cc2ccccc2)[C@H]2c3cc(C(=O)N(C)C)n(CCO)c3C[C@H]2CN1C(=O)c1ccccc1 = ? 1.27

Notebook entry, Calmodulin-1 (Homo sapiens) (UniProt P0DP23) assay: composite z-score of O=C(O)[C@H](Cc1ccccc1)n1cc(C2(O)CCCCC2)nn1 = ? -0.691

Notebook entry, Calmodulin-1 (Homo sapiens) (UniProt P0DP23) assay: composite z-score of CCOC(=O)C[C@H]1[C@H](OC(=O)c2cc3ccccc3oc2=O)[C@@H](NC(=O)CC(C)C)c2cc(OCCCO)ccc2N1C(=O)Cc1ccc(OC)cc1 = ? -0.61
